assay: viability loss in pontine glioma line – cell-based, SU-DIPG-XVII, MIPE5.0, CellTiter-Glo, qHTS, dose response (AID 1347060); conditions: CellTiter-Glo ATP luminescence;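 as to AC50: cells exposed to compound for 48 hours before viability readout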
Records with an inconclusive call do not appear. Calls of active or inactive are those of the source. The limit is not given here; nearly all actives have AC50 up to about 26 µM.
Outcome field: choose from 1 for active, -1 for inactive

Illustrative cases are given below, each with its answer.
CNC(=O)c1ccc(C)c(-n2c(C)cc(OCc3ccc(F)cc3F)c(Br)c2=O)c1: -1
Cc1cc(Nc2nc(N[C@@H](C)c3ccc(F)cc3)c(C#N)cc2F)n[nH]1: 1
Nc1cccc2c1CN([C@H]1CCC(=O)NC1=O)C2=O: -1

Exercise: Test call, this compound: O=C(c1ccc(NS(=O)(=O)c2cccc3cccnc23)cc1)N1CCN(CC2CC2)CC1
Key: -1

Exercise: Dear colleague, could you share the recorded outcome for COc1ccc2c(c1)[C@]1(C[C@H]1c1ccc3c(/C=C/c4ccc(CN5C[C@@H](C)O[C@@H](C)C5)cc4)n[nH]c3c1)C(=O)N2 when you have a moment?
Key: 1

Exercise: // param item: COCCOc1cnc2ccn([C@H](C)c3nnc4c(F)cc(-c5cnn(C)c5)cn34)c(=O)c2c1 ; yields the recorded call
Key: -1

Exercise: What was the test verdict on CCCC1(CCC)CCC2(CCN(CCCN(CC)CC)C2)CC1 ?
Key: 1

Exercise: For C[C@H](NC(=O)CCC(F)(F)F)C(=O)N[C@@H]1C(=O)N(CCO)c2ncccc2-c2ccccc21 , what call appears in the results of this test?
Key: -1

Exercise: What did the test return for O=C(NOCCO)c1ccc2cncn2c1Nc1ccc(I)cc1F ?
Key: 1

Exercise: Given CCNC(=O)c1noc(-c2cc(C(C)C)c(O)cc2O)c1-c1ccc(CN2CCOCC2)cc1 , state the outcome it received in this test.
Key: 1
